Where do the numbers come from? From patent US20160297761A1.

Items are presented alongside their recorded inhibition at 0.1 µM.
- TESTED SYSTEM: L-glutaminase present in mice brain homogenate (Glutaminase(Brain)) (Mus musculus, UniProt D3Z7P3)
- Sequence (D3Z7P3 55-674): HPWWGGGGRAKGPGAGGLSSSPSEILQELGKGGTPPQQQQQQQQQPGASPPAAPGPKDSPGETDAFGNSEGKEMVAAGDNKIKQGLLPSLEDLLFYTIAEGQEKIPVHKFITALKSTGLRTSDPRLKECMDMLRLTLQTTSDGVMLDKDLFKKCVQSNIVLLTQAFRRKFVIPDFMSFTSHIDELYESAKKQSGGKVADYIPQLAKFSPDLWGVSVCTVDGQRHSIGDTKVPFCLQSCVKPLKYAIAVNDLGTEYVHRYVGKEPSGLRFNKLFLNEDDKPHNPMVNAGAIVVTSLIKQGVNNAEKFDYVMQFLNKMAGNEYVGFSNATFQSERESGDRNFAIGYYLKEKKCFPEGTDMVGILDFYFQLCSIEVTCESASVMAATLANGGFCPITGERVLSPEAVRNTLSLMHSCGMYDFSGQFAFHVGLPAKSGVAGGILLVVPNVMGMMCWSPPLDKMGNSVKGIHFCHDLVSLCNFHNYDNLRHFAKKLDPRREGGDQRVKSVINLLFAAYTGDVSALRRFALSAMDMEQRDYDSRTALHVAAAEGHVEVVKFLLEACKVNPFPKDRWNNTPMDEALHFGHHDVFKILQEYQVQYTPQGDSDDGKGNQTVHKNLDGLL
- ASSAY SUMMARY: Glutaminase enzyme activity using glutaminase enzyme from mice brain/kidney homogenate (Nessler's reagent, ammonia)
- Assay type: biochemical
- MEASUREMENT PARAMETERS: 0.1 μM; mice brain homogenate; read-out: Glutaminase(Brain) activity % inhibition 0.1 μM
VALUE TYPE: inhibition at 0.1 µM

>>> measurement("O=C(Cc1cccc(OC(F)(F)F)c1)Nc1ccc(CCCCc2nnc(NC(=O)Cc3cccnc3)s2)cn1")
"75 to 100%"
>>> measurement("CC(Cl)C(=O)Nc1nnc(CCCCc2ccc(NC(=O)Cc3cccc(OC(F)(F)F)c3)nc2)s1 (stereo not shown)")
"< 25%"
>>> measurement("Cc1ccc(F)c(C(=O)Nc2nnc(CCCCc3ccc(NC(=O)Cc4cccc(OC(F)(F)F)c4)nc3)s2)n1")
"< 25%"
>>> measurement("O=C(Cc1cccc(OC(F)(F)F)c1)Nc1ccc(CCCCc2nnc(NC(=O)Cn3cccn3)s2)cn1")
"< 25%"
>>> measurement("CS(=O)(=O)c1cccc(CC(=O)Nc2nnc(CCCCc3ccc(NC(=O)Cc4cccnc4)nc3)s2)c1")
"75 to 100%"
>>> measurement("O=C(Cc1cccnc1)Nc1nnc(CC2CCC(Cc3nnc(NC(=O)Cc4cccnc4)s3)CC2)s1 (stereo not shown)")
"25 to 50%"
>>> measurement("O=C(Cc1cccc(OC(F)(F)F)c1)Nc1ccc(CCCCc2nnc(NC(=O)Cc3ccccn3)s2)c(F)n1")
"50 to 75%"
